System: D1-like (RSA)
Assay: D1-like activity in the Rabbit Splenic Artery (RSA) test, isolated arterial rings
Conditions: agonist activity; arterial preparations contracted with U46619 0.1 µM; compounds cumulatively administered
Counter-ions that a name gives are not always drawn.
Class 1 (yes): D1-like (RSA) pD2 at least 7. Class 0 (no): D1-like (RSA) pD2 below 7.

> print(dat)
                                    compound  answer.label
 1  CCCN(CCCCNCCc1ccccc1)[C@H]1CCc2c(ccc(O)c2O)C1 [Compound 8, dihydrobromide]        0 (no)
 2  Br.Br.CCCN(CCCCCCNCCc1cccc(O)c1)[C@H]1CCc2c(ccc(O)c2O)C1       1 (yes)
 3  Br.Br.CCCN(CCCCCCNCCc1ccc(O)c(O)c1)[C@H]1CCc2c(ccc(O)c2O)C1       1 (yes)
 4  Br.Br.CCCN(CCCCCCNCCc1ccc(O)cc1)[C@H]1CCc2c(ccc(O)c2O)C1       1 (yes)
 5  Br.Br.CCCN(CCCCCCNCCc1ccccc1O)[C@H]1CCc2c(ccc(O)c2O)C1       1 (yes)
 6  Br.Br.CCCN(CCCCCCNCCc1ccc(O)cc1)[C@@H]1CCc2cc(O)c(O)cc2C1       1 (yes)
 7  CCCN(CCCCCCNCCc1ccccc1)[C@H]1CCc2cc(O)c(O)cc2C1 [Compound 11, dihydrochloride]        0 (no)
 8  Br.Br.CCCN(CCCCCCNCCc1ccc(O)c(O)c1)[C@@H]1CCc2cc(O)c(O)cc2C1       1 (yes)
 9  Oc1ccc(CCNCCCCCCNCCc2ccccc2)cc1O [Dopexamine, dopexamine, reference compound]        0 (no)
10  Br.Br.CCCN(CCCCCCNCCc1ccc(O)c(O)c1)[C@H]1CCc2c(O)cccc2C1       1 (yes)
11  CCCN(CCCCCCN(CCC)[C@H]1CCc2c(ccc(O)c2O)C1)CCc1ccc(O)cc1 [Compound 18, dihydrobromide]        0 (no)
12  Br.Br.CCCN(CCCCCCNCCc1cc(O)cc(O)c1)[C@H]1CCc2c(ccc(O)c2O)C1       1 (yes)
13  NCCc1ccc(O)c(O)c1 [Dopamine, reference compound]        0 (no)

###

Biological target: D2 receptor (Rattus norvegicus, UniProt P61169)
Construct: from tissue; host or cells: rat brain striatum membranes
Sequence (P61169 whole entry): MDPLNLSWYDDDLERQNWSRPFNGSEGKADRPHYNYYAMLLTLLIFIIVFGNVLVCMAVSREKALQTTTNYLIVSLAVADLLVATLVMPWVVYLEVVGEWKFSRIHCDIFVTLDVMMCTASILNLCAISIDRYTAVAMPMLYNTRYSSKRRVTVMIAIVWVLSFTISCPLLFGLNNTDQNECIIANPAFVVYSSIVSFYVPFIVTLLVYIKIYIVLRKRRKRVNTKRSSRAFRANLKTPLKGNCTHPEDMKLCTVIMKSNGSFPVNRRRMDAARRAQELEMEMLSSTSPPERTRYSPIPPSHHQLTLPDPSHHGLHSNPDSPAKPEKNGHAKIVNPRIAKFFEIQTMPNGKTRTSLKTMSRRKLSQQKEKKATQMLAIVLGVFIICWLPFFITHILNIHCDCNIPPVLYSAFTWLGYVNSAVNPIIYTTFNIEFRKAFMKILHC
Assay: biochemical
Assay type: binding
Settings: rat striated membranes; [3H]-domperidone 0.3 nM; BSA 0.01%; 37°C for 30 minutes; read-out: Affinity [K1 (nM)] D2 [^3H]-domperidone
Where a name gives a salt, the structure may show the parent alone.
Examples of molecules with documented Ki follow.
endpoint label: Ki

> print(dat)
                                   molecule                           measured.target  measured.result
1  Oc1ccc(CCNCCCCCCNCCc2ccccc2)cc1O [Dopexamine, dopexamine, reference compound]  D2 receptor (Rattus norvegicus, UniProt P61169)          1220 nM
2  Br.Br.CCCN(CCCCCCNCCc1ccc(O)c(O)c1)[C@H]1CCc2c(ccc(O)c2O)C1 [Compound 3, dihydrobromide]  D2 receptor (Rattus norvegicus, UniProt P61169)           0.5 nM
3  Br.Br.CCCN(CCCCCCNCCc1ccc(O)c(O)c1)[C@@H]1CCc2cc(O)c(O)cc2C1 [Compound 13, dihydrobromide]  D2 receptor (Rattus norvegicus, UniProt P61169)           0.8 nM
4  CCCN(CCCCCCN(CCC)[C@H]1CCc2c(ccc(O)c2O)C1)CCc1ccc(O)cc1 [Compound 18, dihydrobromide]  D2 receptor (Rattus norvegicus, UniProt P61169)           0.9 nM
5  Br.Br.CCCN(CCCCCCNCCc1cccc(O)c1)[C@H]1CCc2c(ccc(O)c2O)C1 [Compound 1, dihydrobromide]  D2 receptor (Rattus norvegicus, UniProt P61169)           0.5 nM
6  Br.Br.CCCN(CCCCCCNCCc1ccc(O)cc1)[C@H]1CCc2c(ccc(O)c2O)C1 [Compound 2, dihydrobromide]  D2 receptor (Rattus norvegicus, UniProt P61169)           0.2 nM

###

Target: D2 receptor (Rattus norvegicus, UniProt P61169)
Construct: from tissue; host or cells: rat brain striatum membranes
Assay: biochemical
Type: binding
Conditions: rat striated membranes; [3H]-domperidone 0.3 nM; BSA 0.01%; 37°C for 30 minutes; read-out: Affinity [K1 (nM)] D2 [^3H]-domperidone
Where a name gives a salt, the structure may show the parent alone.
Examples of molecules with documented Ki follow.
endpoint label: Ki (nM)

> print(dat)
                                   molecule  measured.result
1  CCCN(CCCCNCCc1ccccc1)[C@H]1CCc2c(ccc(O)c2O)C1 [Compound 8, dihydrobromide]                1
2  CCCN(CCCCCCN(C)CCc1ccccc1)[C@H]1CCc2c(ccc(O)c2O)C1 [Compound 5, dihydrobromide]              0.3
3  CCCN(CCCCCCNCCc1ccccc1)[C@H]1CCc2c(ccc(O)c2O)C1.Cl.Cl [Compound 10, dihydrochloride]              0.1
4  CCCN(CCCCCCCCNCCc1ccc(O)c(O)c1)[C@H]1CCc2c(ccc(O)c2O)C1 [Compound 7, dihydrobromide]              0.5
5  Br.Br.CCCN(CCCCCCNCCc1cc(O)cc(O)c1)[C@H]1CCc2c(ccc(O)c2O)C1 [Compound 4, dihydrobromide]              0.1
6  CCCN(CCCCCCNCCc1ccccc1)[C@H]1CCc2cc(O)c(O)cc2C1 [Compound 11, dihydrochloride]              0.5
7  Br.Br.CCCN(CCCCCCNCCc1ccccc1O)[C@H]1CCc2c(ccc(O)c2O)C1 [Compound 15, dihydrobromide]              0.4

###

Tested on: D2-like (REA)
Assay: D2-like activity in the Rabbit Ear Artery (REA) test, isolated arterial rings
Parameters: species or system Male New Zealand rabbits
Details: agonist activity; electrically stimulated ear artery rings (10 Hz, 1 msec, 40-80 mA); compounds cumulatively administered
endpoint label: D2-like (REA) pD2

> print(dat)
                                   molecule  measured.result
1  CCCN(CCCCCCNCCc1ccccc1)[C@H]1CCc2c(ccc(O)c2O)C1.Cl.Cl              9.2
2  Br.Br.CCCN(CCCCCCNCCc1ccc(O)c(O)c1)[C@@H]1CCc2cc(O)c(O)cc2C1              9.4
3  Oc1ccc(CCNCCCCCCNCCc2ccccc2)cc1O [Dopexamine, dopexamine, reference compound]              6.3
4  Br.Br.CCCN(CCCCCCNCCc1cc(O)cc(O)c1)[C@H]1CCc2c(ccc(O)c2O)C1             10.6

###

Target: D1 receptor (Rattus norvegicus)
Construct: from tissue; host or cells: rat brain striatum membranes
Sequence (P18901 whole entry): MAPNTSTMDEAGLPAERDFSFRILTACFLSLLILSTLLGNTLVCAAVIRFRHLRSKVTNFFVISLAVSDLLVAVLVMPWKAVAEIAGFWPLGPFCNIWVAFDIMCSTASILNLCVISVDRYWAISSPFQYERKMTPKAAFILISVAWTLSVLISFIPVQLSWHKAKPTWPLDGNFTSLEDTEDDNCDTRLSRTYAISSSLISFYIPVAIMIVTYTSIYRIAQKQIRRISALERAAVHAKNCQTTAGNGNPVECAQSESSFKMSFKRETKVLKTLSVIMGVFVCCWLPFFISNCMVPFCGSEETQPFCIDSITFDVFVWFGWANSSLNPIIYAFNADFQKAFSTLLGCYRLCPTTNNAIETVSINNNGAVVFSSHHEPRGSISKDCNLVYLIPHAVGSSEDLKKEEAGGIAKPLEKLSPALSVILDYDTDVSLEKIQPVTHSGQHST
Test: biochemical
Format: binding
Details: rat striated membranes; 0.2 nM [3H]-SCH23390; 37°C for 20 minutes; read-out: Affinity [K1 (nM)] D1 [^3H]-SCH23390
Structures can show the parent of a compound that is named as a salt.
endpoint label: Ki (nM)

> print(dat)
                                   compound  endpoint.label  measured.result
1  Br.Br.CCCN(CCCCCCNCCc1ccc(O)c(O)c1)[C@@H]1CCc2cc(O)c(O)cc2C1 [Compound 13, dihydrobromide]              Ki               43
2  CCCN(CCCCCCN(C)CCc1ccccc1)[C@H]1CCc2c(ccc(O)c2O)C1 [Compound 5, dihydrobromide]              Ki               69
3  CCCN(CCCCCCNCCc1ccccc1)[C@H]1CCc2cc(O)c(O)cc2C1 [Compound 11, dihydrochloride]              Ki               89
4  CCCN(CCCCCCN(CCC)[C@H]1CCc2c(ccc(O)c2O)C1)CCc1ccc(O)cc1 [Compound 18, dihydrobromide]              Ki              107
5  CCCN(CCCCNCCc1ccccc1)[C@H]1CCc2c(ccc(O)c2O)C1 [Compound 8, dihydrobromide]              Ki              361
6  CCCN(CCCCCCCCNCCc1ccc(O)c(O)c1)[C@H]1CCc2c(ccc(O)c2O)C1 [Compound 7, dihydrobromide]              Ki               27
7  CCCN(CCCCCCNCCc1ccccc1)[C@H]1CCc2c(ccc(O)c2O)C1.Cl.Cl [Compound 10, dihydrochloride]              Ki               40
